# measurementDescription: Half life of compound was determined.
# Type: ADME
outcomeMeasure: half-life (min)
# value in min; strip the unit string

half-life for N[C@@H](Cc1ccc(C2(C(F)(F)F)N=N2)cc1OCCOCCOCCNC(=O)CCCC[C@@H]1SC[C@@H]2NC(=O)N[C@@H]21)C(=O)O ?
2.3

For the compound N[C@@H](Cc1ccc(C2(C(F)(F)F)N=N2)cc1OCCNC(=O)CCCC[C@@H]1SC[C@@H]2NC(=O)N[C@@H]21)C(=O)O , what half-life is on record?
2.6
